target: human recombinant casein kinase 1δ (Homo sapiens, UniProt P48730); construct: purchased INVITROGEN PV3665; experiment: Casein kinase 1δ inhibition assay (Z'-LYTE Ser/Thr 11 Peptide); format: biochemical; conditions: 0.3 μg/ml compound, 3.0 μg/ml enzyme, 1.0 μM peptide, 20 μM ATP; 15 min pre-reaction, 2 hours; read-out: Casein kinase 1δ inhibitory rate
Sequence (P48730 whole entry): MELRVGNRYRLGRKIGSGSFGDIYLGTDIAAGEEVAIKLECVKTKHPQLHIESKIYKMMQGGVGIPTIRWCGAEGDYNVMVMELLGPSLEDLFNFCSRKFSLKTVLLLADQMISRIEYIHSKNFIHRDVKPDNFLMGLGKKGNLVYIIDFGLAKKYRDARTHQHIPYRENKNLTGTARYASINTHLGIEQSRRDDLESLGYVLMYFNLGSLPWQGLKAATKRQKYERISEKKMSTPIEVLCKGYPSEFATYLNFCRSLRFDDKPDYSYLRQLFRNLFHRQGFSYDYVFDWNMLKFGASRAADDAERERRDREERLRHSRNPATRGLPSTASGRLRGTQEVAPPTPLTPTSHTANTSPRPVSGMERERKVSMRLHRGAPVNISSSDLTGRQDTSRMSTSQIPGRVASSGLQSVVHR
readoutName: inhibition at 0.3 µg/mL (%)
Give bare numbers, in %.

Worked set:
# smilesText, resultUnits, inhibition at 0.3 µg/mL
records = [
    ("COc1ccc(/C=C2\\N=C(c3cccs3)OC2=O)c(C)n1", "%", 55.3),
    ("Cn1cc(/C=C2\\N=C(c3cccs3)OC2=O)cn1", "%", 73.6),
    ("Cc1cc(C2=N/C(=C\\c3cccnc3)C(=O)O2)ccc1Br", "%", 83.2),
    ("O=C1OC(c2cccs2)=N/C1=C\\c1csnn1", "%", 32.2),
    ("O=C1OC(c2cccs2)=N/C1=C\\c1cocn1", "%", 67.9),
]

I have 8 compounds here; please give me inhibition at 0.3 µg/mL for each one.
1. COc1ccc(/C=C2\N=C(c3cccs3)OC2=O)cc1
2. O=C1OC(c2cccs2)=N/C1=C\c1cc2c(cc1Cl)OCO2
3. O=C1OC(c2cccs2)=N/C1=C\c1cc(Cl)c2c(c1)OCCO2
4. COc1cncc(/C=C2\N=C(c3ccc(C)s3)OC2=O)c1
5. O=C1OC(/C=C/c2ccccc2)=NC/1=C\c1cccnc1
6. COCc1ccc(/C=C2\N=C(c3cccs3)OC2=O)o1
7. COc1cc(/C=C2\N=C(c3cccs3)OC2=O)ccn1
8. Cn1cnc(/C=C2\N=C(c3cccs3)OC2=O)c1

[96.1, 74.3, 76.7, 82, 85, 29, 60.5, 37]

Look up inhibition at 0.3 µg/mL for this compound: "O=C1OC(c2cccs2)=N/C1=C\c1ccc([N+](=O)[O-])c(Br)c1"
85.9
